Field: interaction score. Provide a value for each of the binders that follow.
studySystem: T1, 4H346-bA
T1 chain: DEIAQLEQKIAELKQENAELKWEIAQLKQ
experiment: two-hybrid library CCNG1;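 note: natural log of median RNA to DNA barcode read ratio; higher means stronger binding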
A bare number is all that is needed in reply.

interaction score lookup needed for DEIAQLEQEIAELKQKIAELKWKNAQLKQ [4H112-bA] , thanks.
-0.491

interaction score lookup needed for DEIAQLEQKIAELKQENAELKWEIAQLKQ [4H346-bA] , thanks.
1.48

interaction score lookup needed for DENAQLEQEIAELEQKNAELKWEIAQLEQ [4H1081-bA] , thanks.
-0.753

interaction score lookup needed for DKNAQLEQKIAELKQKIAELEWENAQLEQ [4H3427-bA] , thanks.
-1.15

interaction score lookup needed for DENAQLEQENAELEQEIAELEWKIAQLKQ [4H1158-bA] , thanks.
-0.31

interaction score lookup needed for DKIAQLKQEIAELKQKNAELEWEIAQLEQ [4H2673-bA] , thanks.
-0.931

interaction score lookup needed for DEIAQLEQEIAELKQKNAELEWKIAQLKQ [4H118-bA] , thanks.
-0.612

interaction score lookup needed for DKIAQLKQEIAELEQENAELKWEIAQLKQ [4H2586-bA] , thanks.
0.976

interaction score lookup needed for DKIAQLKQENAELEQEIAELKWKIAQLKQ [4H2702-bA] , thanks.
0.224

interaction score lookup needed for DKIAQLKQKNAELKQEIAELEWEIAQLKQ [4H3010-bA] , thanks.
-0.9

interaction score lookup needed for DKIAQLKQEIAELKQEIAELEWENAQLEQ [4H2627-bA] , thanks.
-1.21

interaction score lookup needed for DEIAQLEQENAELEQKIAELKWEIAQLKQ [4H170-bA] , thanks.
-1.19

interaction score lookup needed for DKNAQLEQEIAELEQKIAELEWKNAQLKQ [4H3112-bA] , thanks.
-0.0408

interaction score lookup needed for DENAQLKQKIAELEQKIAELEWKNAQLEQ [4H1831-bA] , thanks.
-0.307

Source: paper PMC10397247
